Consider the following compounds; for each one, report its TGI.
- Test system: MDA-MB-468 breast
- Protocol description: NCI tumour cell line growth inhibition, 48 h

CCN(CC)CCCC(C)Nc1c2ccc(Cl)cc2nc2ccc(O)cc12 (stereo unspecified) | 2.91 µM

Batch: TGI for all items listed.
1. COC(=O)Nc1nc2ccc(Oc3ccc(NC(=O)Nc4cc(C(F)(F)F)ccc4F)cc3)cc2s1
2. COc1ccc(-c2nc(-c3nc4ccc(Cl)cc4[nH]3)c3ccccn23)cc1
3. Cc1ccc(C(=O)NC(C)C)cc1-c1ccc(C(=O)NCC2CC2)cc1
4. COc1ccc2c(c1)CCCN2c1c2ccccc2nc2ccccc12
5. Cc1ccc(C(=O)N(CCCN)C(c2oc3cc(Cl)ccc3c(=O)c2Cc2ccccc2)C(C)C)cc1 (stereo unspecified)
6. O=C(Nc1ccncc1)C(=O)c1cn(S(=O)(=O)c2cccc(F)c2)c2ccccc12
7. COc1ccc(-c2cnc(NC(=O)CCCCCCNC(=O)C(O)(O)C(F)(F)F)s2)cc1
8. CCCCCCCC[C@@H](O)CC(=O)N[C@@H](CC(N)=O)C(=O)N[C@@H](CCC(N)=O)C(=O)N[C@@H](CC(=O)c1cc(C)cc(O)c1C(=O)c1c(O)cccc1O)CC(C)C

["> 25 µM", "6.76 µM", "> 25 µM", "> 100 µM", "0.904 µM", "8.38 µM", "5.56 µM", "3.14 µM"]

Batch: TGI for all items listed.
1. COc1cc2ncn(-c3cc(OCc4cccs4)c(C(N)=O)s3)c2cc1OC
2. CN(C)CCCOc1ccc(C(=C(c2ccccc2)C2CCCC2)c2ccc(OCCCN(C)C)cc2)cc1

1: 6.41 µM; 2: 3.97 µM
